For each of the molecules below, state its GI50.
Tested on: ACHN
Assay: NCI tumour cell line growth inhibition, 48 h
Activity calls are given as the source filed them. Cut-off read from the data, not from the text of the source: active = GI50 up to about 1.1 µM and inactive = higher.

Guide cases for GI50, answers given:
INSERT INTO assay_data (molecule, result) VALUES
  ('COC(=O)C1=C(C(=O)OC)C(C(=O)c2ccccc2)N2N=C(c3ccc(Cl)cc3)C=CC12 (stereo unspecified)', '> 100 µM (inactive)'),
  ('N#C[C@H](c1nc2ccccc2s1)c1nc2ccccc2nc1Cl', '14.2 µM (inactive)');

Each of the following entries comes with a recorded value; kindly state GI50 for each.
1. Cc1ccc2nc(/C=N/c3ccccc3Cl)cc(C)c2c1
2. Cc1ccc(S(=O)(=O)N2CCCCC2CCO)cc1 (stereo unspecified)
3. O=c1cc(-c2ccccc2)[nH]c2cc(F)cc(F)c12
4. O=C(O)c1ccccc1/C=N\N=C1NCCN1
5. CCn1c(-c2c(Cl)cc(O)cc2Cl)cc2c(Cl)cc(O)cc21
6. CCS[C@H]1NC(=O)C1[C@H](C)O[Si](C)(C)C(C)(C)C (stereo partly specified)

output:
30.7 µM (inactive)
> 100 µM (inactive)
50.9 µM (inactive)
> 100 µM (inactive)
4.66 µM (inactive)
> 100 µM (inactive)
